Published IC50 for MAPK1(ERK2) enzyme (Homo sapiens, UniProt P28482), assembled from different documents, is shown next.

Here is how some molecules turned out for IC50.
Item Nc1ncc(C2CCOCC2)cc1-c1ccc(C(=O)NCc2cnccn2)c(F)c1 has what recorded IC50?
1160 nM

Entry to check: Cc1cc(-c2n[nH]c3cc4c(cc23)CN([C@H]2CN(Cc3ccccc3)CC(F)(F)C2)C(=O)N4)ccn1
< 500 nM

Entry to check: Cc1cnc(Nc2ccnn2C)nc1-c1cc2n(c1)CC(F)(F)Cn1c-2nnc1C1(C(F)(F)F)CCC1
≤ 5 nM

Entry to check: Cn1nccc1Nc1cc(-c2cc3n(c2)CCCn2c-3nnc2C2(C(F)F)CC2)c(Cl)cn1
≤ 5 nM

Entry to check: CCNC(=O)Nc1ccc2ncc(-c3ccc(O)cc3Cl)nc2n1
103 nM

Entry to check: Cn1nccc1Nc1cc(-c2cc3n(c2)C[C@H](CF)n2c-3nnc2C(F)(F)c2ccccc2Cl)ccn1
5 to 10 nM

# batch: return IC50 for each of the 4 molecules below
1. Cc1cc(-c2n[nH]c3cc4c(cc23)CN([C@@H]2CCCN(Cc3ccccc3Cl)C2)C(=O)N4)ccn1
2. Cc1cnc(Nc2ccnn2C)cc1-c1cc2n(c1)C[C@H](CF)n1c-2nnc1C(F)(F)c1cccc(F)c1
3. O=C(NCCCCc1ccccc1)Nc1ccc2ncc(-c3ccc(O)c(F)c3)nc2n1
4. Cn1nccc1Nc1cc(-c2cc3n(c2)C[C@H](Cc2ccccc2)n2c(CCC(F)(F)F)nnc2-3)c(Cl)cn1

["< 500 nM", "5 to 10 nM", "6 nM", "5 to 10 nM"]

* * *

Published pIC50 for MAPK1(ERK2) enzyme (Homo sapiens, UniProt P28482), assembled from different documents, is shown next.
Numbers only, as −log10 of the molar value.

Here is how some compounds turned out for pIC50.
Item COc1ccc(-c2cnc3ccc(NC(=O)NCCCCc4ccccc4)nc3n2)cc1OC has what recorded pIC50?
8.22

Entry to check: Nc1ncc(C2CCOCC2)cc1-c1ccc(C(=O)N[C@H](CO)c2ccccc2)c(F)c1
9.04

Entry to check: CCNC(=O)Nc1ccc2ncc(Nc3ccc(C#N)cc3)nc2n1
4.50

Now look at this entry.
Item O=C(c1nc2cc3c(-c4ccncc4)n[nH]c3cc2[nH]1)N1C[C@@H]1c1ccccc1 has what recorded pIC50?
8.80

* * *

Published IC50 for MAPK1(ERK2) enzyme (Homo sapiens, UniProt P28482), assembled from different documents, is shown next.

# batch: return IC50 for each of the 6 compounds below
1. Cc1cc(-c2n[nH]c3cc4c(cc23)CN([C@@H]2CN(CC(F)(F)F)C[C@H]2c2ccccc2)C(=O)N4)ccn1
2. Cn1nccc1Nc1cc(-c2cc3n(c2)CCCn2c(COc4ccccc4F)nnc2-3)c(F)cn1
3. Cn1nccc1Nc1cc(-c2cc3n(c2)CC2(CC2)n2c-3nnc2C(F)(F)C(F)F)c(F)cn1
4. Cn1nccc1Nc1cc(-c2cc3n(c2)CCCn2c-3nnc2C(C)(C)C(F)(F)F)c(Cl)cn1
5. Cc1cc(-c2n[nH]c3cc4[nH]c(=O)c(C(C)c5ccccc5)cc4cc23)ccn1 (stereo not shown)
6. Cc1cnc(Nc2ccnn2C)cc1-c1cc2n(c1)C[C@H](CF)n1c-2nnc1C(F)(F)c1ncccc1F

< 500 nM
5 to 10 nM
5 to 10 nM
≤ 5 nM
< 500 nM
≤ 5 nM

# batch: return IC50 for each of the 7 compounds below
1. Cn1nccc1Nc1nccc(-c2cc3n(c2)C[C@H](CF)n2c-3nnc2C(F)(F)c2ccccc2Cl)n1
2. Cc1cnc(Nc2ccnn2C)cc1-c1cc2n(c1)CC(F)(F)Cn1c-2nnc1C(F)(F)C(F)F
3. Cn1nccc1Nc1cc(-c2cc3n(c2)C[C@H](O)Cn2c-3nnc2C2(C(F)(F)F)CCC2)c(Cl)cn1
4. Cn1nccc1Nc1cc(-c2cc3n(c2)CCCn2c-3nnc2C2(C(F)(F)F)CCC2)c(C(F)(F)F)cn1
5. Cc1cnc(Nc2ccnn2C)cc1-c1cc2n(c1)C[C@H](CF)n1c-2nnc1C(F)(F)C(F)(F)F
6. CC(c1ccccc1)c1cc2cc3c(NC4CCOCC4)n[nH]c3cc2[nH]c1=O (stereo not shown)
7. Cn1nccc1Nc1cc(-c2cc3n(c2)C[C@H](F)Cn2c-3nnc2C(F)(F)C(F)(F)F)c(Cl)cn1

1. 5 to 10 nM
2. ≤ 5 nM
3. ≤ 5 nM
4. 5 to 10 nM
5. ≤ 5 nM
6. < 500 nM
7. 5 to 10 nM

# batch: return IC50 for each of the 2 compounds below
1. Cc1cc(-c2n[nH]c3cc4c(cc23)CN([C@@H]2CCCN(Cc3c(F)cccc3F)C2)C(=O)N4)ccn1
2. Cc1cnc(Nc2ccnn2C)cc1-c1cc2n(c1)CC1(CC1)Cn1c-2nnc1C1(C(F)(F)F)CCC1

1: < 500 nM; 2: ≤ 5 nM

Item CNc1nccc(C(C#N)c2nc3ccccc3s2)n1 (stereo not shown) has what recorded IC50?
> 30000 nM
